B1: library; numbered along this chain (parent)
chain: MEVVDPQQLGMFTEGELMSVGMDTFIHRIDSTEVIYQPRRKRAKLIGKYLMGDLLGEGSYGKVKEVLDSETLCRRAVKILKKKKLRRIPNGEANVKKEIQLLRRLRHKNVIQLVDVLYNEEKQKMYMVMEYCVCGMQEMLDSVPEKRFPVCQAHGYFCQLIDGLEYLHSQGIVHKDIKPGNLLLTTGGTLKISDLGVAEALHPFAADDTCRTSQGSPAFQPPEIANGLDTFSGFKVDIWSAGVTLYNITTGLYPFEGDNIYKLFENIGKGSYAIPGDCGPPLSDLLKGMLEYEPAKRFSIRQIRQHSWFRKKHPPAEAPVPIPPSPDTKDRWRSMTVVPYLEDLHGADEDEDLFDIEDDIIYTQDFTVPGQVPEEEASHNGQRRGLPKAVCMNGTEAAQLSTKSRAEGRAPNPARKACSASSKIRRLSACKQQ

variants of: B1; experiment: STK11 functional score (HeLa growth suppression), rescaled enrichment; synonymous median = 1, nonsense median = 0 (normalised score); details: with HeLa; variant type: missense
parameter_measured: STK11 functional score
Enter the number alone.

Example results:
E121D: 0.812
D208N: 1.4
T230W: 1.17
A429C: 1.62
G91K: 0.301
V368L: 1.35
V338Q: 1.54
L164H: 0.0804
L285F: 0.988
E65S: 1.55

Query: Give the reported STK11 functional score for this variant. "I267V"
Reply: 1.09

Query: Give the reported STK11 functional score for this variant. "L50G"
Reply: 0.949

Query: Give the reported STK11 functional score for this variant. "E256C"
Reply: 0.541

Query: Give the reported STK11 functional score for this variant. "R40C"
Reply: 1.39

Query: Give the reported STK11 functional score for this variant. "V243Q"
Reply: 1.19

Query: Give the reported STK11 functional score for this variant. "I356P"
Reply: 1.6

Query: Give the reported STK11 functional score for this variant. "S325I"
Reply: 1.56

Query: Give the reported STK11 functional score for this variant. "W239V"
Reply: -0.13

Just for reference, the supplement of paper PMC12338614 is where these values come from.
